- Procedure summary: Stability against metabolizing enzymes in the liver (hepatic microsome)
- Condition parameters: time until remaining amount reached 50%; female SD rat hepatic microsome, 6 μg/mL, 37° C., pH 7.4
Measured metric: Half-life

These solved cases illustrate the format of a correct answer.
molecule="Cc1cccc(C)c1[C@@H]1OCC2(C)C3C[C@H](OC(=O)c4ccc(C#N)cc4)[C@@]4(C)Oc5cc(-c6cccnc6)oc(=O)c5[C@H](O)C4[C@@]3(C)CC[C@@H]2O1 (stereo partly shown)" result=">9 h"
molecule="Cc1ccccc1[C@@H]1OCC2(C)C3C[C@H](OC(=O)c4ccc(C#N)cc4)[C@@]4(C)Oc5cc(-c6cccnc6)oc(=O)c5[C@H](O)C4[C@@]3(C)CC[C@@H]2O1 (stereo partly shown)" result=">9 h"
molecule="CC(=O)OCC1(C)C2C[C@H](OC(=O)c3ccc(C#N)cc3)[C@@]3(C)Oc4cc(-c5cccnc5)oc(=O)c4[C@H](O)C3[C@@]2(C)CC[C@@H]1OC(=O)C(C)C (stereo partly shown)" result=">9 h"
molecule="Cc1cccc([C@@H]2OCC3(C)C4C[C@H](OC(=O)c5ccc(F)cc5)[C@@]5(C)Oc6cc(-c7cccnc7)oc(=O)c6[C@H](O)C5[C@@]4(C)CC[C@@H]3O2)c1 (stereo partly shown)" result=">9 h"
molecule="CC(=O)OCC1(C)C2C[C@H](OC(=O)c3ccc(C)cc3)[C@@]3(C)Oc4cc(-c5cccnc5)oc(=O)c4[C@H](O)C3[C@@]2(C)CC[C@@H]1OC(C)=O (stereo partly shown) [PRD009, reference compound]" result="<1 h"
molecule="CC(=O)O[C@H]1CC[C@@]2(C)C(C[C@H](OC(C)=O)[C@@]3(C)Oc4cc(-c5cccnc5)oc(=O)c4[C@H](O)C23)C1(C)COC(=O)c1ccccc1 (stereo partly shown)" result=">9 h"

Lab note: CC(=O)OCC1(C)C2C[C@H](OC(=O)c3ccc(C#N)cc3)[C@@]3(C)Oc4cc(-c5cccnc5)oc(=O)c4[C@H](O)C3[C@@]2(C)CC[C@@H]1OC(=O)c1ccccc1 (stereo partly shown) gave Half-life of >9 h

The recorded Half-life for entry Cc1ccc([C@@H]2OCC3(C)C4C[C@H](OC(=O)c5ccc(F)cc5)[C@@]5(C)Oc6cc(-c7cccnc7)oc(=O)c6[C@H](O)C5[C@@]4(C)CC[C@@H]3O2)cc1 (stereo partly shown) equals >9 h

Form field Half-life, entry COc1ccc(CNC(=O)C2(C)C3C[C@H](OC(=O)c4ccc(C#N)cc4)[C@@]4(C)Oc5cc(-c6cccnc6)oc(=O)c5[C@H](O)C4[C@@]3(C)CC[C@@H]2OC(C)=O)c(OC)c1 (stereo partly shown) : >9 h

Consider CC(=O)O[C@H]1CC2C(C)(COC(=O)C(C)C)[C@@H](OC(=O)C(C)C)CC[C@]2(C)C2[C@@H](O)c3c(cc(-c4cccnc4)oc3=O)O[C@@]21C (stereo partly shown) . Its measured Half-life is >9 h

Notebook: CCc1ccc(C(=O)O[C@H]2CC3C(C)(COC(C)=O)[C@@H](OC(C)=O)CC[C@]3(C)C3[C@@H](O)c4c(cc(-c5cccnc5)oc4=O)O[C@@]32C)cc1 (stereo partly shown) [PRD024, reference compound] , Half-life read as <1 h

# Half-life of CC(=O)OCC1(C)C2C[C@H](OC(=O)c3ccccc3C)[C@@]3(C)Oc4cc(-c5cccnc5)oc(=O)c4[C@H](O)C3[C@@]2(C)CC[C@@H]1OC(C)=O (stereo partly shown) [PRD007, reference compound] = <1 h
